assay: Caspase-3/7 induction in HepG2 cells by small molecules, qHTS assay (AID 1346978); details: HepG2 caspase-3/7 activation, Caspase-Glo luminescence, 17 h; series mostly up to 92.4 µM; note: nearly all actives have a fitted effect of over 15% in size; note: potency is the fitted concentration of half-maximal effect
Results filed as inconclusive are left out. The source made the active and inactive calls. Calls come from the whole dose curve; as a rule, active = well fitted activation curve with a large enough effect in the repeat runs; inconclusive = weak or mixed curves; inactive = flat fitted curve, though single readings scatter.
REPORTED_METRIC: Potency

Example results:
# MOLECULE, Potency
data = [
    ("CC(C)(C)CC(C)(C)c1ccc(O)c(Cc2ccc(Cl)cc2Cl)c1", "26.6 µM (active)"),
    ("O=C(Nc1cccc(Cl)c1)OCC#CCCl", "inactive"),
    ("CC(C)OC(=O)c1cc2c(OCC(O)CNC(C)(C)C)cccc2[nH]1 (stereo unspecified)", "inactive"),
    ("CCC(C)Nc1ccc(NC(C)CC)cc1 (stereo unspecified)", "inactive"),
]

Give the reported Potency for this molecule. `CNC(=O)c1ccccc1`
inactive

Tell me measured Potency for `CCCCCCOC(=O)c1ccc(O)cc1` please.
inactive

Look up and state reported Potency for `CCCCCCCC[N+](CCCCCCCC)(CCCCCCCC)CCCCCCCC`
15.3 µM (active)

Quickly give me recorded Potency for `CC(C)n1nc(-c2cc3cc(O)ccc3[nH]2)c2c(N)ncnc21`
29.8 µM (active)

Give Potency for `CCOc1ccc2nc3cc(N)ccc3c(N)c2c1`
inactive

Return Potency for the following molecule: `CN(C)c1ccc(C2(c3ccc(N(C)C)cc3)OC(=O)c3cc(N(C)C)ccc32)cc1`
inactive

Give the value of Potency reported for the following: `O=S1(=O)CC(Cl)(Cl)C(Cl)(Cl)C1`
inactive

Specify measured Potency for `OCc1c[nH]c2ccccc12` .
inactive

* * *

test: qHTS assay to identify small molecule agonists of the AP-1 signaling pathway - cell viability counter screen (AID 1159525); conditions: ME-180 (cervical carcinoma) AP-1-bla cells viability, ATP luminescence, 5 h; series mostly up to 76.8 µM; note: nearly all actives have a fitted effect of over 55% in size
Records with an inconclusive call do not appear. Calls of active or inactive are those of the source. Calls come from the whole dose curve.
Result category, one only: active, inactive

Reference set, count: 5
# COMPOUND, LABEL
records = [
    ("CCOC(=O)O[C@H](C)OC(=O)c1ccc2c(c1)cc(C(=O)NC1CCN(C(C)C)CC1)n2Cc1cc(-c2ccc(Cl)s2)on1", "active"),
    ("CC[C@@]1(O)C(=O)OCc2c1cc1n(c2=O)Cc2c-1nc1ccccc1c2/C=N/OC(C)(C)C", "inactive"),
    ("NC(=O)CC[C@@H]1NC(=O)[C@H](Cc2ccccc2)NC(=O)[C@H](Cc2ccc(O)cc2)NC(=O)CCSSC[C@@H](C(=O)N2CCC[C@H]2C(=O)N[C@@H](CCCN=C(N)N)C(=O)NCC(N)=O)NC(=O)[C@H](CC(N)=O)NC1=O", "inactive"),
    ("Fc1ccc([C@@H]2CCNC[C@H]2COc2ccc3c(c2)OCO3)cc1", "inactive"),
    ("CCCCCCCCCCC=O", "inactive"),
]

What did this assay record as the result for CCCCCCCCNC(C)C(O)c1ccc(SC(C)C)cc1 (centres undefined) ?
active

Which outcome did this test record for the compound `O=C(Oc1ccccc1)c1ccccc1C(=O)Oc1ccccc1` ?
inactive

What did this assay record as the result for `OCCN(CCO)c1nc(N2CCCCC2)c2nc(N(CCO)CCO)nc(N3CCCCC3)c2n1` ?
inactive

Please indicate how the test categorized `C[C@@H]1C[C@H]2[C@@H]3CCC4=CC(=O)C=C[C@]4(C)[C@@]3(Cl)[C@@H](O)C[C@]2(C)[C@@]1(OC(=O)c1ccco1)C(=O)CCl` .
inactive
